Reported Q = LD50 i.v./ED73 i.v. (therapeutic breadth) values for a set of compounds
- System: aconitine arrhythmia in female Wistar rats
- Format: in vivo, rat (female Wistar)
- Measurement context: rat, ratio of LD50 to ED73 (aconitine model)
Write no unit; give the number alone.

>>> df
                                   compound  quantitative_readout
0  CCOC(=O)Nc1ccc2c(c1)N(C(=O)CNCc1ccccc1)c1ccccc1CC2 [No. 1]                    16
1  CCOC(=O)Nc1ccc2c(c1)N(C(=O)CN(C)C)c1ccccc1CC2 [Bonnecor ®, reference compound]                    39
2  CNCC(=O)N1c2ccccc2CCc2ccc(NC(=O)OC)cc21 [No. 15]                    67
3  CCOC(=O)Nc1ccc2c(c1)N(C(=O)CNC(C)C)c1ccccc1CC2 [No. 4]                    12
4  CCCNCC(=O)N1c2ccccc2CCc2ccc(NC(=O)OCC)cc21 [No. 5]                    34
5  CCNCC(=O)N1c2ccccc2CCc2ccc(NC(=O)OC(C)C)cc21 [No. 13]                    34
6  CCOC(=O)Nc1ccc2c(c1)N(C(=O)CNC1CCCCC1)c1ccccc1CC2 [No. 8]                    15
7  COC(=O)Nc1ccc2c(c1)N(C(=O)CNCCO)c1ccccc1CC2 [No. 16]                    90

For the next question, use this compound.
For CCOC(=O)Nc1ccc2c(c1)N(C(=O)CNC(C)c1ccccc1)c1ccccc1CC2 (stereo not drawn) [No. 22] , write its Q = LD50 i.v./ED73 i.v. (therapeutic breadth).
9

All figures here come from patent US5116974A.
